Each item that follows carries a reported growth inhibition.
run.description: NCI Yeast Anticancer Drug Screen. Data for the rad50 strain (AID 155);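 note: 0% = growth of vehicle-only cultures of the same strain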
condition.summary: S. cerevisiae rad50 strain growth inhibition; at 5.0 µM (retest, dose inferred, filed as 0.5); stronger effect = higher value
The panel holds about 79,000 compounds, 15% with a hit somewhere; the sample as a whole holds those more often.
recorded.metric: growth inhibition (%)

>>> df
                                    molecule  units  measured
 0  CCN(CC)CCNc1ccc2ncn3c4c(OC)ccc(=O)c4c(O)c1c23      %        24
 1     Nc1ncnc2c1c(-c1ccccc1)cn2-c1ccc(I)cc1      %        54
 2  O=C1c2ccccc2C(=O)c2c(/C=C\N3CCCCC3)ccnc21      %        40
 3          ClC1(c2ccccc2)c2ccccc2-c2ccccc21      %       -26
 4            O=C(O)c1ccc(OCc2ccccc2)c(Cl)c1      %        16
 5     O=C(Nc1cccnc1)c1ccc(CSc2ccc(Cl)cc2)o1      %        56
 6       CCc1cc(CC)c(-c2ccco2)c(COC(=O)NC)c1      %        -1
 7  CCOC(=O)Cc1csc2[n+]1C(=O)/C(=C/c1ccc(OC)c(OC)c1)S2      %       -11
 8  NC(=O)CC1CCC(c2ccccc2)CC1 (stereo not given)      %        -1
 9  CC(C)C1=CC(=O)C(C)(C2C(O)CC3(C)C4CC=C5C(CCC(O)C5(C)C)C4(C)C(=O)CC23C)O1 (stereo not given)      %        65
10  COC1/C=C\C=C(/C)C(=O)Nc2cc3nc4cc(Br)ccc4oc-3c(c2=O)CC(C)CC(OC)C(O)C(C)/C=C(\C)C1OC(N)=O (stereo not given)      %        54
11             COc1ccccc1/C=C/c1ccnc2ccccc12      %        31
12               CCCCCCCCCCCCCCCCCc1nnc(N)o1      %         1
13  CCOc1c(N=Nc2ccccc2Cl)c(-c2ccccc2)nn1C(=S)S      %        -1
14  O=C(O)C(c1ccccc1)c1ccc(-c2ccccc2)cc1 (stereo not given)      %         3
15  C=C1C(=O)OC2/C=C(\C(=O)O)CC/C=C(\C)CC(OC(=O)/C=C(\C)CC)C12 (stereo not given)      %        -1
16                          S=C=NCCCCCCN=C=S      %        36
17                          COc1ccc(CCBr)cc1      %        -1
18  COc1cc2c(cc1O)-c1c(cnn1-c1ccc([N+](=O)[O-])cc1)CCC2      %         7
19  O=c1c2ccccc2c2ccccc2c(=O)n1-c1cc2c3ccccc3ccc2c2ccccc12      %        12

Where these numbers come from: PubChem BioAssay (NCI)
